Test system: Streptococcus pneumoniae Stpn_Mef 5654
assay: MIC, broth microdilution (NCCLS)
Type: cell-based
applied_conditions: Table 5, Strain ID J (Table 4): S. pneumoniae Stpn_Mef 5654; in µg/mL (unit assumed)
metric: MIC
Please reply with the value in numeric form only.

Exercise: Would you mind telling me what MIC value was observed for CC[C@H]1OC(=O)[C@H](C)C(=O)[C@H](C)[C@@H](OC2O[C@H](C)C[C@H](N(C)C)[C@H]2O)[C@@](C)(OC)C[C@@H](C)C(=O)[C@H](C)[C@@H]2[C@@H]1OC(=O)N2CCCCc1ccnc2ccccc12 (some centres unmarked) [Compound 6220] ?
Key: 0.4

Exercise: Do the same for CC[C@H]1OC(=O)[C@H](C)C(=O)[C@H](C)[C@@H](OC2O[C@H](C)C[C@H](N(C)C)[C@H]2O)[C@@](C)(OC)C[C@@H](C)C2=N[C@@H](C)CN3C(=O)O[C@H]1[C@H]3[C@H]2C (some centres unmarked) [Compound 6223] please
Key: 0.78

Exercise: Do the same for CC[C@H]1OC(=O)[C@H](C)C(=O)[C@H](C)[C@@H](OC2O[C@H](C)C[C@H](N(C)C)[C@H]2O)[C@@](C)(OC)C[C@@H](C)C(=O)[C@H](C)[C@@H]2[C@@H]1OC(=O)N2CCCn1cnc2cccnc21 (some centres unmarked) [Compound 4716] please
Key: 0.78

Exercise: Do the same for CC[C@H]1OC(=O)[C@H](C)C(=O)[C@H](C)[C@@H](OC2O[C@H](C)C[C@H](N(C)C)[C@H]2O)[C@@](C)(OC)C[C@@H](C)C(=O)[C@H](C)[C@H]2N(CCCCc3ccnc4ccccc34)C(=O)O[C@]12CC (some centres unmarked) [Compound 7283] please
Key: 0.4

Exercise: Do the same for CC[C@H]1OC(=O)[C@H](C)C(=O)[C@H](C)[C@@H](OC2O[C@H](C)C[C@H](N(C)C)[C@H]2O)[C@@](C)(OC)C[C@@H](C)C(=O)[C@H](C)[C@H]2N(CCCCn3cnc4ccccc43)C(=O)O[C@]12CC (some centres unmarked) [Compound 7282] please
Key: 0.4

---

Tested on: Streptococcus pneumoniae Stpn_280-962
assay: MIC, broth microdilution (NCCLS)
Assay type: cell-based
applied_conditions: Table 5, Strain ID G (Table 4): S. pneumoniae Stpn_280-962 Pen S
metric: MIC

molecule	result
CC[C@H]1OC(=O)[C@H](C)C(=O)[C@H](C)[C@@H](OC2O[C@H](C)C[C@H](N(C)C)[C@H]2O)[C@@](C)(OC)C[C@@H](C)C(=O)[C@H](C)[C@H]2N(CCCCn3cnc4ccccc43)C(=O)O[C@]12CC (stereo partly shown)	=0.05
CC[C@H]1OC(=O)[C@H](C)C(=O)[C@H](C)[C@@H](OC2O[C@H](C)C[C@H](N(C)C)[C@H]2O)[C@@](C)(OC)C[C@@H](C)C(=O)[C@H](C)[C@@H]2[C@@H]1OC(=O)N2CCCCc1ccnc2ccccc12 (stereo partly shown) [Compound 4711]	=0.5
CC[C@H]1OC(=O)[C@H](C)C(=O)[C@H](C)[C@@H](OC2O[C@H](C)C[C@H](N(C)C)[C@H]2O)[C@@](C)(OC)C[C@@H](C)C(=O)[C@H](C)[C@@H]2[C@@H]1OC(=O)N2CCCCn1ccc2ccccc21 (stereo partly shown)	=0.5
CC[C@H]1OC(=O)[C@H](C)C(=O)[C@H](C)[C@@H](OC2O[C@H](C)C[C@H](N(C)C)[C@H]2O)[C@@](C)(OC)C[C@@H](C)C(=O)[C@H](C)[C@H]2NC(=O)O[C@@H]21 (stereo partly shown)	=0.05

---

List of MIC values.
Test system: Haemophilus influenzae Hain_49247
assay: MIC, broth microdilution (NCCLS)
Format: cell-based
applied_conditions: Table 7, Strain ID M (Table 6): H. influenzae Hain_49247; unit assumed
Experimental: Strains. The bacterial isolates listed in Table 4 were cultivated from −70° C. frozen stocks by two consecutive overnight passages (P1, P2) at 35° C. on 5% blood agar (Remel, Lenexa, Kans.). Chocolate agar (Remel) is used for Haemophilus influenzae. H. influenzae and Streptococcus pneumoniae are incubated in 5-10% CO2 Drug Stock Preparation. […] Susceptibility Testing. MICs are determined by the broth microdilution method in accordance with the NCCLS guidelines. […]
Hi! Could you send only the number? It should be in µg/mL, unit omitted.

Recorded MIC, per entry:
compound	MIC [µg/mL]
CCC1OC(=O)C(C)C(=O)C(C)C(OC2OC(C)CC(N(C)C)C2O)C(C)(OC)CC(C)C(=O)C(C)C2C1OC(=O)N2CCCCc1cnc2ccccc2c1 (centres unmarked) [Compound 20n]	6.25
CCC1OC(=O)C(C)C(=O)C(C)C(OC2OC(C)CC(N(C)C)C2O)C(C)(OC)CC(C)C(=O)C(C)C2C1OC(=O)N2OCCOc1ccccc1 (centres unmarked) [Compound 20w]	50

Exercise: Would you mind telling me what MIC value was observed for CCC1OC(=O)C(C)C(=O)C(C)C(OC2OC(C)CC(N(C)C)C2O)C(C)(OC)CC(C)C(=O)C(C)C2C1OC(=O)N2CCCCc1ncc(-c2ccccc2)s1 (centres unmarked) [Compound 20t] ?
Key: 12.5

Exercise: Do the same for C/C=C/[C@]12OC(=O)N(CCCCn3cnc(-c4cccnc4)c3)[C@@H]1[C@@H](C)C(=O)[C@H](C)C[C@](C)(OC)[C@H](OC1O[C@H](C)C[C@H](N(C)C)[C@H]1O)[C@@H](C)C(=O)[C@@H](C)C(=O)O[C@@H]2CC (some centres unmarked) please
Key: 25

Exercise: Do the same for CCC1OC(=O)C(C)C(=O)C(C)C(OC2OC(C)CC(N(C)C)C2O)C(C)(OC)CC(C)C(=O)C(C)C2C1OC(=O)N2CCCCc1ncc(-c2ccc(F)cc2F)s1 (centres unmarked) [Compound 20u] please
Key: 25

---

System: Streptococcus pneumoniae Stpn_280-962
assay: MIC, broth microdilution (NCCLS)
Assay type: cell-based
applied_conditions: Table 5, Strain ID G (Table 4): S. pneumoniae Stpn_280-962 Pen S
Procedure: Strains. The bacterial isolates listed in Table 4 were cultivated from −70° C. frozen stocks by two consecutive overnight passages (P1, P2) at 35° C. on 5% blood agar (Remel, Lenexa, Kans.). Chocolate agar (Remel) is used for Haemophilus influenzae. H. influenzae and Streptococcus pneumoniae are incubated in 5-10% CO2 Drug Stock Preparation. […] Susceptibility Testing. MICs are determined by the broth microdilution method in accordance with the NCCLS guidelines. […]
metric: MIC

molecule	result
CC[C@H]1OC(=O)[C@H](C)C(=O)[C@H](C)[C@@H](OC2O[C@H](C)C[C@H](N(C)C)[C@H]2O)[C@@](C)(OC)C[C@@H](C)C(=O)[C@H](C)[C@H]2N(CCCCn3cnc(-c4cccnc4)c3)C(=O)O[C@]12CC (stereo partly drawn)	=0.05
CC[C@H]1OC(=O)[C@H](C)[C@@H](O[C@H]2C[C@@](C)(OC)[C@@H](O)[C@H](C)O2)[C@H](C)[C@@H](O[C@@H]2O[C@H](C)C[C@H](N(C)C)[C@H]2O)[C@](C)(OC)C[C@@H](C)C(=O)[C@H](C)[C@@H](O)[C@]1(C)O [Clar., clarithromycin, reference compound]	=0.05
CC[C@H]1OC(=O)[C@H](C)C(=O)[C@H](C)[C@@H](OC2O[C@H](C)C[C@H](N(C)C)[C@H]2O)[C@@](C)(OC)C[C@@H](C)C(=O)[C@H](C)[C@@H]2[C@@H]1OC(=O)N2CCCCn1cnc(-c2ccccc2)c1 (stereo partly drawn) [Compound 6221]	=0.05

---

List of MIC values.
Test system: Staphylococcus epidermidis Step_14990
assay: MIC, broth microdilution (NCCLS)
Type: cell-based
applied_conditions: Table 5, Strain ID A (Table 4): S. epidermidis Step_14990; in µg/mL (unit assumed)

Recorded MIC, per entry:
compound	MIC
CC[C@H]1OC(=O)[C@H](C)C(=O)[C@H](C)[C@@H](OC2O[C@H](C)C[C@H](N(C)C)[C@H]2O)[C@@](C)(OC)C[C@@H](C)C(=O)[C@H](C)[C@@H]2[C@@H]1OC(=O)N2CCCCn1cnc(-c2ccccc2)c1 (some centres unmarked) [Compound 6221]	0.1
CC[C@H]1OC(=O)[C@H](C)C(=O)[C@H](C)[C@@H](OC2O[C@H](C)C[C@H](N(C)C)[C@H]2O)[C@@](C)(OC)C[C@@H](C)C(=O)[C@H](C)[C@H]2N(CCCCn3cnc(-c4ccccc4)c3)C(=O)O[C@]12CC (some centres unmarked) [Compound 7281]	0.2
CC[C@H]1OC(=O)[C@H](C)C(=O)[C@H](C)[C@@H](OC2O[C@H](C)C[C@H](N(C)C)[C@H]2O)[C@@](C)(OC)C[C@@H](C)C(=O)[C@H](C)[C@@H]2[C@@H]1OC(=O)N2CCCCc1ccnc2ccccc12 (some centres unmarked) [Compound 4711]	0.1
CC[C@H]1OC(=O)[C@H](C)C(=O)[C@H](C)[C@@H](OC2O[C@H](C)C[C@H](N(C)C)[C@H]2O)[C@@](C)(OC)C[C@@H](C)C2=N[C@@H](C)CN3C(=O)O[C@H]1[C@H]3[C@H]2C (some centres unmarked) [Compound 6223]	1.56
CC[C@H]1OC(=O)[C@H](C)C(=O)[C@H](C)[C@@H](OC2O[C@H](C)C[C@H](N(C)C)[C@H]2O)[C@@](C)(OC)C[C@@H](C)C(=O)[C@H](C)[C@H]2N(CCCCn3cnc(-c4cccnc4)c3)C(=O)O[C@]12CC (some centres unmarked) [Compound 7280]	0.2
CC[C@H]1OC(=O)[C@H](C)C(=O)[C@H](C)[C@@H](OC2O[C@H](C)C[C@H](N(C)C)[C@H]2O)[C@@](C)(OC)C[C@@H](C)C(=O)[C@H](C)[C@@H]2[C@@H]1OC(=O)N2CCCn1cnc2cccnc21 (some centres unmarked) [Compound 4716]	6.25
CC[C@H]1OC(=O)[C@H](C)C(=O)[C@H](C)[C@@H](OC2O[C@H](C)C[C@H](N(C)C)[C@H]2O)[C@@](C)(OC)C[C@@H](C)C(=O)[C@H](C)[C@@H]2[C@@H]1OC(=O)N2CCCCc1ccc2ccccc2n1 (some centres unmarked) [Compound 5960]	0.2
CC[C@H]1OC(=O)[C@H](C)C(=O)[C@H](C)[C@@H](OC2O[C@H](C)C[C@H](N(C)C)[C@H]2O)[C@@](C)(OC)C[C@@H](C)C(=O)[C@H](C)[C@@H]2[C@@H]1OC(=O)N2CCCCn1cnc(-c2ccccc2)c1 (some centres unmarked) [Compound 4710]	0.1

Exercise: Would you mind telling me what MIC value was observed for CC[C@H]1OC(=O)[C@H](C)C(=O)[C@H](C)[C@@H](OC2O[C@H](C)C[C@H](N(C)C)[C@H]2O)[C@@](C)(OC)C[C@@H](C)C(=O)[C@H](C)[C@@H]2[C@@H]1OC(=O)N2CCCCn1cnc2ncccc21 (some centres unmarked) [Compound 4713] ?
Key: 0.4

Exercise: Do the same for CC[C@H]1OC(=O)[C@H](C)C(=O)[C@H](C)[C@@H](OC2O[C@H](C)C[C@H](N(C)C)[C@H]2O)[C@@](C)(OC)C[C@@H](C)C(=O)[C@H](C)[C@H]2NC(=O)O[C@@H]21 (some centres unmarked) [Compound 4266] please
Key: 3.13

Exercise: Do the same for CC[C@H]1OC(=O)[C@H](C)C(=O)[C@H](C)[C@@H](OC2O[C@H](C)C[C@H](N(C)C)[C@H]2O)[C@@](C)(OC)C[C@@H](C)C(=O)[C@H](C)[C@H]2N(CCCCn3cnc4ccccc43)C(=O)O[C@]12CC (some centres unmarked) [Compound 7282] please
Key: 0.4
